Test: binders from COS7 lysate, DM2A8 probe, primary screen, torsin A project, cell lysate, small-molecule microarray, fluorescence 635/667 (AID 1065)
Details: higher = more signal, COS7 lysate expressing mutant human TOR1A
readout.name: composite z-score
Form rule: numeric answer, no unit written next to it.

COc1ccc(C(O)C2C=CC3C(=O)N(C)C(=O)C3N2Nc2ccccc2)cc1OCc1ccccc1 (configuration not stated) : 0.174
CC(=O)NCCCC[C@@H]1NC(=O)[C@@H]2C[C@H](C(=O)NCCCCN(C)C)[C@H](c3ccc(O)cc3)N2C1=O : -0.241
CC(C)(C)N1CC=CC23O[C@@H]4C=CCOC(=O)[C@@H]4[C@H]2C(=O)N(CCCCCO)[C@@H]3C1=O (some centres not stated) : -0.555
CCN(CC)c1ccc(N2CC=CC34O[C@@H]5/C=C\CCCOC(=O)C5[C@H]3C(=O)N(C(CO)C(C)C)[C@@H]4C2=O)cc1 (some centres not stated) : -1.2
N#Cc1ccc(NN2C(C(O)C3CCCCC3)C=CC3C(=O)N(c4ccccc4)C(=O)C32)cc1 (configuration not stated) : -0.433

Query: Record request: composite z-score value, item CN(C)CCCNC(=O)[C@@]1(Cc2ccccc2I)c2ccccc2C(=O)N(Cc2ccccc2C(F)(F)F)[C@H]1c1ccc(CO)cc1
Reply: -1.14

Query: Any idea what its composite z-score is? The compound is CCOC(=O)C[C@H]1[C@H](OC(=O)c2ccc(-c3ccccc3)cc2)[C@@H](NC(=O)c2ccc(-c3ccccc3)cc2)c2cc(OCCCO)ccc2N1C(=O)Cc1ccc(OC)cc1
Reply: -0.0676
